Values compiled from PubChem BioAssay AID1963428.

System: 171881-019-R-J1-PDC complex spheroid growth, % test/control
Experiment: Anticancer human tumor 171881-019-R-J1-PDC patient-derived invasive breast carcinoma cell line growth inhibition [Asc]
Details: curve of first compound; second compound 0.316 µM
From the text: Multicellular complex tumor spheroid response to apoptosis pathway targeting inhibitors Alrizomadlin, Pelcitoclax, and Dasminapant in combination with a variety of drugs and investigational agents in selected tumor cell lines […] Compounds. […] If the clinical Cmax for an agent had not been determined, the highest concentration tested was 10 microM. […]
pIC50: −log10 of the molar value.
Below, each entry is listed with its recorded pIC50.

Task: Returns the measured pIC50 for the input compound. Input: CCN1CCN(Cc2ccc(Nc3ncc(F)c(-c4cc(F)c5nc(C)n(C(C)C)c5c4)n3)nc2)CC1 + Cc1c(S(C)(=O)=O)c(-c2cc(F)cc(N3CCN(c4ccc(NS(=O)(=O)c5ccc(NC(CCN6CCC(C(=O)OCCCP(=O)(O)O)CC6)CSc6ccccc6)c(S(=O)(=O)C(F)(F)F)c5)cc4)CC3)c2)c(-c2ccc(Cl)cc2)n1C(C)C
Output: < 6.00

Task: Returns the measured pIC50 for the input compound. Input: COc1c(OCCCN2CCOCC2)ccc2c3n(c(=NC(=O)c4cnc(N)nc4)nc12)CCN3 + Cc1c(S(C)(=O)=O)c(-c2cc(F)cc(N3CCN(c4ccc(NS(=O)(=O)c5ccc(NC(CCN6CCC(C(=O)OCCCP(=O)(O)O)CC6)CSc6ccccc6)c(S(=O)(=O)C(F)(F)F)c5)cc4)CC3)c2)c(-c2ccc(Cl)cc2)n1C(C)C
Output: 7.86

Task: Returns the measured pIC50 for the input compound. Input: CCN1CCN(Cc2ccc(Nc3ncc(F)c(-c4cc(F)c5nc(C)n(C(C)C)c5c4)n3)nc2)CC1 + CNC(C)C(=O)NC1CN(S(=O)(=O)c2cccc(S(=O)(=O)N3CCC4CCC(C(=O)NC(c5ccccc5)c5ccccc5)N4C(=O)C(NC(=O)C(C)NC)C3)c2)CCC2CCC(C(=O)NC(c3ccccc3)c3ccccc3)N2C1=O
Output: < 6.00

----------
system: 171881-019-R-J1-PDC complex spheroid growth, % test/control; assay: Anticancer human tumor 171881-019-R-J1-PDC cell line growth inhibition [Asc]; settings: curve of first compound; second compound 0.1 µM
endpoint label: pIC50
Schema: pIC50 number; meaning minus log10 of the concentration expressed in molar units.

Known results for molecules:
COc1c(OCCCN2CCOCC2)ccc2c3n(c(=NC(=O)c4cnc(N)nc4)nc12)CCN3 + Cc1c(S(C)(=O)=O)c(-c2cc(F)cc(N3CCN(c4ccc(NS(=O)(=O)c5ccc(NC(CCN6CCC(C(=O)OCCCP(=O)(O)O)CC6)CSc6ccccc6)c(S(=O)(=O)C(F)(F)F)c5)cc4)CC3)c2)c(-c2ccc(Cl)cc2)n1C(C)C: 7.66
NC(=O)C(=Cn1cnc(-c2cc(C(F)(F)F)cc(C(F)(F)F)c2)n1)c1cncnc1 + CNC(C)C(=O)NC1CN(S(=O)(=O)c2cccc(S(=O)(=O)N3CCC4CCC(C(=O)NC(c5ccccc5)c5ccccc5)N4C(=O)C(NC(=O)C(C)NC)C3)c2)CCC2CCC(C(=O)NC(c3ccccc3)c3ccccc3)N2C1=O: 7.21

Task: Form field: pIC50 recorded for O=C(c1ccc(F)c(F)c1Nc1ccc(I)cc1F)N1CC(O)([C@@H]2CCCCN2)C1 + Cc1c(S(C)(=O)=O)c(-c2cc(F)cc(N3CCN(c4ccc(NS(=O)(=O)c5ccc(NC(CCN6CCC(C(=O)OCCCP(=O)(O)O)CC6)CSc6ccccc6)c(S(=O)(=O)C(F)(F)F)c5)cc4)CC3)c2)c(-c2ccc(Cl)cc2)n1C(C)C with 171881-019-R-J1-PDC complex spheroid growth, % test/control (enter value)
Output: 6.68

Task: Form field: pIC50 recorded for NC(=O)C(=Cn1cnc(-c2cc(C(F)(F)F)cc(C(F)(F)F)c2)n1)c1cncnc1 + Cc1c(S(C)(=O)=O)c(-c2cc(F)cc(N3CCN(c4ccc(NS(=O)(=O)c5ccc(NC(CCN6CCC(C(=O)OCCCP(=O)(O)O)CC6)CSc6ccccc6)c(S(=O)(=O)C(F)(F)F)c5)cc4)CC3)c2)c(-c2ccc(Cl)cc2)n1C(C)C with 171881-019-R-J1-PDC complex spheroid growth, % test/control (enter value)
Output: 7.60

----------
Below, each entry is listed with its recorded viability, T/C.
test system: 171881-019-R-J1-PDC complex spheroid growth, % test/control; assay: Anticancer human tumor 171881-019-R-J1-PDC cell line growth inhibition [Asc]; settings: second compound 0.0316 µM; first compound 0.00316 µM; stronger effect = lower value;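 as to viability, T/C: spheroids exposed to compounds for 7 days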
# value in %; strip the unit string

COc1c(OCCCN2CCOCC2)ccc2c3n(c(=NC(=O)c4cnc(N)nc4)nc12)CCN3 + CNC(C)C(=O)NC1CN(S(=O)(=O)c2cccc(S(=O)(=O)N3CCC4CCC(C(=O)NC(c5ccccc5)c5ccccc5)N4C(=O)C(NC(=O)C(C)NC)C3)c2)CCC2CCC(C(=O)NC(c3ccccc3)c3ccccc3)N2C1=O: 215

Shifting focus to the molecule that follows.
Task: Returns the measured viability, T/C for the input molecule. Input: NC1CCC(NC2CC2c2ccccc2)CC1 (configuration not stated) + CNC(C)C(=O)NC1CN(S(=O)(=O)c2cccc(S(=O)(=O)N3CCC4CCC(C(=O)NC(c5ccccc5)c5ccccc5)N4C(=O)C(NC(=O)C(C)NC)C3)c2)CCC2CCC(C(=O)NC(c3ccccc3)c3ccccc3)N2C1=O
Output: 100

----------
test system: 171881-019-R-J1-PDC complex spheroid growth, % test/control; experiment: Anticancer human tumor 171881-019-R-J1-PDC cell line growth inhibition [Asc]; conditions: curve of first compound; second compound 0.316 µM
pIC50: −log10 of the molar value.
Below, each entry is listed with its recorded pIC50.

Known results for molecules:
NC1CCC(NC2CC2c2ccccc2)CC1 (configuration not stated) + Cc1c(S(C)(=O)=O)c(-c2cc(F)cc(N3CCN(c4ccc(NS(=O)(=O)c5ccc(NC(CCN6CCC(C(=O)OCCCP(=O)(O)O)CC6)CSc6ccccc6)c(S(=O)(=O)C(F)(F)F)c5)cc4)CC3)c2)c(-c2ccc(Cl)cc2)n1C(C)C: < 7.00
O=C(c1cc(Cc2n[nH]c(=O)c3ccccc23)ccc1F)N1CCN(C(=O)C2CC2)CC1 + Cc1c(S(C)(=O)=O)c(-c2cc(F)cc(N3CCN(c4ccc(NS(=O)(=O)c5ccc(NC(CCN6CCC(C(=O)OCCCP(=O)(O)O)CC6)CSc6ccccc6)c(S(=O)(=O)C(F)(F)F)c5)cc4)CC3)c2)c(-c2ccc(Cl)cc2)n1C(C)C: < 5.00
C#Cc1c(F)ccc2cc(O)cc(-c3ncc4c(N5CC6CCC(C5)N6)nc(OCC56CCCN5CC(F)C6)nc4c3F)c12 (configuration not stated) + CNC(C)C(=O)NC1CN(S(=O)(=O)c2cccc(S(=O)(=O)N3CCC4CCC(C(=O)NC(c5ccccc5)c5ccccc5)N4C(=O)C(NC(=O)C(C)NC)C3)c2)CCC2CCC(C(=O)NC(c3ccccc3)c3ccccc3)N2C1=O: < 5.00
C=CC(=O)N1CCN(c2nc(=O)n(-c3c(C)ccnc3C(C)C)c3nc(-c4c(O)cccc4F)c(F)cc23)C(C)C1 (configuration not stated) + CNC(C)C(=O)NC1CN(S(=O)(=O)c2cccc(S(=O)(=O)N3CCC4CCC(C(=O)NC(c5ccccc5)c5ccccc5)N4C(=O)C(NC(=O)C(C)NC)C3)c2)CCC2CCC(C(=O)NC(c3ccccc3)c3ccccc3)N2C1=O: < 5.00
C=CC(=O)N1CCN(c2nc(=O)n(-c3c(C)ccnc3C(C)C)c3nc(-c4c(O)cccc4F)c(F)cc23)C(C)C1 (configuration not stated) + Cc1c(S(C)(=O)=O)c(-c2cc(F)cc(N3CCN(c4ccc(NS(=O)(=O)c5ccc(NC(CCN6CCC(C(=O)OCCCP(=O)(O)O)CC6)CSc6ccccc6)c(S(=O)(=O)C(F)(F)F)c5)cc4)CC3)c2)c(-c2ccc(Cl)cc2)n1C(C)C: < 5.00
C=C(F)C(=O)N1CCN(c2nc(OCC3CCCN3C)nc3c2CCN(c2cccc4cccc(Cl)c24)C3)CC1CC#N (configuration not stated) + Cc1c(S(C)(=O)=O)c(-c2cc(F)cc(N3CCN(c4ccc(NS(=O)(=O)c5ccc(NC(CCN6CCC(C(=O)OCCCP(=O)(O)O)CC6)CSc6ccccc6)c(S(=O)(=O)C(F)(F)F)c5)cc4)CC3)c2)c(-c2ccc(Cl)cc2)n1C(C)C: 5.23

Shifting focus to the molecule that follows.
Task: Returns the measured pIC50 for the input molecule. Input: COc1c(OCCCN2CCOCC2)ccc2c3n(c(=NC(=O)c4cnc(N)nc4)nc12)CCN3 + CNC(C)C(=O)NC1CN(S(=O)(=O)c2cccc(S(=O)(=O)N3CCC4CCC(C(=O)NC(c5ccccc5)c5ccccc5)N4C(=O)C(NC(=O)C(C)NC)C3)c2)CCC2CCC(C(=O)NC(c3ccccc3)c3ccccc3)N2C1=O
Output: 7.55
